subjectOfTest: recombinant RIPK2 kinase (Homo sapiens)
Sequence (O43353 whole entry): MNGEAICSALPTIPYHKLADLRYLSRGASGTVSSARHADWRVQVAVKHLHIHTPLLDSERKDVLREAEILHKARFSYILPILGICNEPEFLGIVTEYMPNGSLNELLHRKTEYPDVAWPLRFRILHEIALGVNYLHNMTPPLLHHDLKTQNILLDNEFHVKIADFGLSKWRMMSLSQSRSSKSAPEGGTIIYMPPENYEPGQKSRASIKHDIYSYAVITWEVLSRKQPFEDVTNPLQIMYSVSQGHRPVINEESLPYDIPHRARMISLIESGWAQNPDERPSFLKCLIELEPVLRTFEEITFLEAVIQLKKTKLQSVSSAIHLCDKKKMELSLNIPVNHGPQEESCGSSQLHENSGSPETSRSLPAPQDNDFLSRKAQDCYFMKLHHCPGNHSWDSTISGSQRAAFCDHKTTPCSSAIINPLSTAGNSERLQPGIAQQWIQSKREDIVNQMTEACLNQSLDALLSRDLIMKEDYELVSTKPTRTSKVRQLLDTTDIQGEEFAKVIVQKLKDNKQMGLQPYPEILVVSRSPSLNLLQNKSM
runDescription: RIPK2 ADPGlo in vitro kinase assay
runConditions: average ± SD of at least three titrations, read-out: IC50, In vitro kinase, RIPK2 ADPGIo
Excerpt: The BIR2 domains of XIAP and cIAP1 were cloned into the pGEX‐6P1 vector and were expressed in E. coli (BL21) cells as a fusion protein with N‐terminal 6xHis (XIAP BIR2 only) and GST tags. Protein expression was induced with IPTG, and cells were lysed using BugBuster protein extraction reagent (#70921, Merck Millipore) according to manufacturer's instructions. […]
measuredMetric: pIC50
Give bare numbers, as −log10 of the molar value.

[[record]]
molecule = "Cc1ccc(-c2nn(C(C)(C)CNC(=O)c3ccncc3)c3ncnc(N)c23)cc1 [WEHI‐345, reference compound]"
measuredmetric = "pIC50"
readoutnumber = 7.43

[[record]]
molecule = "CCCS(=O)(=O)Nc1cc(-c2cc(-c3ccc(N4CCNCC4)cc3)cnc2C)cc(F)c1OC [CSLP53]"
measuredmetric = "pIC50"
readoutnumber = 5.85

[[record]]
molecule = "CCCS(=O)(=O)Nc1cc(-c2cc(-c3ccc(N4CCNCC4)cc3)cnc2N)ccc1OC [CSLP18]"
measuredmetric = "pIC50"
readoutnumber = 7.50


Inquiry: Test system recombinant RIPK2 kinase (Homo sapiens); read-out pIC50; what value for COc1cc(-c2cc(-c3ccc(N4CCNCC4)cc3)cnc2N)cc(F)c1OC [CSLP55] ?
Reply text: 7.41

Source listed as paper PMC6120666.
